- Test system: rodent lifetime carcinogenesis bioassay, tumor incidence TD50
- ASSAY OVERVIEW: carcinogenic potency in animals, long-term in vivo studies, CPDB compilation (AID 1745844)
- TEST CONDITIONS: rat; strain Sprague-Dawley; males; by gavage; site: fat; lesion: liposarcoma; dosed 52 weeks; study length 141 weeks

SAMPLE SMILES: C=C(F)F
TESTED ON: rodent lifetime carcinogenesis bioassay, tumor incidence TD50
TD50 [mg/kg/day]: 38.8

---

- System: rodent lifetime carcinogenesis bioassay, tumor incidence TD50
- ASSAY OVERVIEW: carcinogenic potency in animals, long-term in vivo studies, CPDB compilation (AID 1745844)
- TEST CONDITIONS: rat; strain Sprague-Dawley; males; in feed; site: liver; lesion: hemangioma; dosed 117 weeks; study length 117 weeks

SAMPLE SMILES: CCOc1ccc(NC(C)=O)cc1
TESTED ON: rodent lifetime carcinogenesis bioassay, tumor incidence TD50
TD50: 5470 mg/kg/day

---

- System: rodent lifetime carcinogenesis bioassay, tumor incidence TD50
- ASSAY OVERVIEW: carcinogenic potency in animals, long-term in vivo studies, CPDB compilation (AID 1745844)
- TEST CONDITIONS: rat; strain Fischer 344; males; in feed; site: colon + rectum; lesion: polypoid adenoma; dosed 103 weeks; study length 104 weeks

SAMPLE SMILES: Nc1c(Br)cc(Br)c2c1C(=O)c1ccccc1C2=O
TD50: 64.3 mg/kg/day

---

- Test system: rodent lifetime carcinogenesis bioassay, tumor incidence TD50
- ASSAY OVERVIEW: carcinogenic potency in animals, long-term in vivo studies, CPDB compilation (AID 1745844)
- TEST CONDITIONS: mouse; strain Swiss; males; in drinking water; site: liver; lesion: several types; types named in the paper; dosed 69 weeks; study length 69 weeks

SAMPLE SMILES: CNN
TD50: 4.58 mg/kg/day

---

- System: rodent lifetime carcinogenesis bioassay, tumor incidence TD50
- ASSAY OVERVIEW: carcinogenic potency in animals, long-term in vivo studies, CPDB compilation (AID 1745844)
- TEST CONDITIONS: mouse; strain B6C3F1; males; oral dosing; site: any site (literature study); lesion: several types; types named in the paper; dosed 78 weeks; study length 78 weeks

SAMPLE SMILES: NNCCO
TESTED ON: rodent lifetime carcinogenesis bioassay, tumor incidence TD50
TD50: 0.713 mg/kg/day

---

- System: rodent lifetime carcinogenesis bioassay, tumor incidence TD50
- ASSAY OVERVIEW: carcinogenic potency in animals, long-term in vivo studies, CPDB compilation (AID 1745844)
- TEST CONDITIONS: mouse; strain B6C3F1; females; by gavage; site: uterus; lesion: endometrial stromal polyp; dosed 104 weeks; study length 104 weeks

SAMPLE SMILES: O=P(OCCCl)(OCCCl)OCCCl
TD50 / mg/kg/day: 2420

---

- System: rodent lifetime carcinogenesis bioassay, tumor incidence TD50
- ASSAY OVERVIEW: carcinogenic potency in animals, long-term in vivo studies, CPDB compilation (AID 1745844)
- TEST CONDITIONS: rat; strain Fischer 344; males; in drinking water; site: nasal cavity; lesion: olfactory carcinoma; dosed 48 weeks; study length 95 weeks
PROPERTY LABEL: TD50

SAMPLE SMILES: O=NN(CCO)CCO
READING: 50.4 mg/kg/day

---

- Test system: rodent lifetime carcinogenesis bioassay, tumor incidence TD50
- ASSAY OVERVIEW: carcinogenic potency in animals, long-term in vivo studies, CPDB compilation (AID 1745844)
- TEST CONDITIONS: mouse; strain Charles River CD1; males; in feed; site: duodenum; lesion: adenocarcinoma; dosed 112 weeks; study length 112 weeks

SAMPLE SMILES: O=C1c2ccccc2C(=O)N1SC(Cl)(Cl)Cl
TD50: 2400 mg/kg/day

---

- Test system: rodent lifetime carcinogenesis bioassay, tumor incidence TD50
- ASSAY OVERVIEW: carcinogenic potency in animals, long-term in vivo studies, CPDB compilation (AID 1745844)
- TEST CONDITIONS: mouse; strain B6C3F1; males; inhaled; site: Harderian gland; lesion: adenocarcinoma + adenoma + adenocarcinoma, bilateral + adenoma, bilateral; dosed 26 weeks; study length 104 weeks
PROPERTY LABEL: TD50

SAMPLE SMILES: C=CC=C
TESTED ON: rodent lifetime carcinogenesis bioassay, tumor incidence TD50
PROPERTY LABEL: TD50
READING: 22.7 mg/kg/day

---

- Test system: rodent lifetime carcinogenesis bioassay, tumor incidence TD50
- ASSAY OVERVIEW: carcinogenic potency in animals, long-term in vivo studies, CPDB compilation (AID 1745844)
- TEST CONDITIONS: hamster; strain Syrian Golden; females; in drinking water; site: vagina; lesion: carcinoma; dosed 90 weeks; study length 90 weeks

SAMPLE SMILES: CCOC(N)=O
MEASUREMENT UNITS: mg/kg/day
TD50: 314

---

- Tested on: rodent lifetime carcinogenesis bioassay, tumor incidence TD50
- ASSAY OVERVIEW: carcinogenic potency in animals, long-term in vivo studies, CPDB compilation (AID 1745844)
- TEST CONDITIONS: rat; strain Fischer 344; males; in feed; site: subcutaneous tissue; lesion: fibroma; dosed 78 weeks; study length 105 weeks

SAMPLE SMILES: [O-]/[N+](=N\O)c1ccccc1
MEASUREMENT UNITS: mg/kg/day
TD50: 10.5

---

- Test system: rodent lifetime carcinogenesis bioassay, tumor incidence TD50
- ASSAY OVERVIEW: carcinogenic potency in animals, long-term in vivo studies, CPDB compilation (AID 1745844)
- TEST CONDITIONS: rat; strain Fischer 344; males; inhaled; site: nasal cavity; lesion: papillary adenoma; dosed 103 weeks; study length 105 weeks

MOLECULE: CCC1CO1 (stereo unspecified)
TESTED ON: rodent lifetime carcinogenesis bioassay, tumor incidence TD50
TD50: 220 mg/kg/day

---

- System: rodent lifetime carcinogenesis bioassay, tumor incidence TD50
- ASSAY OVERVIEW: carcinogenic potency in animals, long-term in vivo studies, CPDB compilation (AID 1745844)
- TEST CONDITIONS: rat; strain Fischer 344; females; in drinking water; site: liver; lesion: angiosarcoma; dosed 50 weeks; study length 75 weeks
PROPERTY LABEL: TD50

COMPOUND: CC(O)CN(CCO)N=O (stereo unspecified)
TESTED ON: rodent lifetime carcinogenesis bioassay, tumor incidence TD50
READING: 4.5 mg/kg/day

---

- Tested on: rodent lifetime carcinogenesis bioassay, tumor incidence TD50
- ASSAY OVERVIEW: carcinogenic potency in animals, long-term in vivo studies, CPDB compilation (AID 1745844)
- TEST CONDITIONS: mouse; strain Swiss; males; by gavage; site: several sites; sites named in the paper; lesion: carcinoma; dosed 85 weeks; study length 85 weeks

SAMPLE SMILES: NNC(=O)c1ccncc1
TESTED ON: rodent lifetime carcinogenesis bioassay, tumor incidence TD50
TD50: 24 mg/kg/day

---

Parameter: TD50. Scope: all listed entries.
- Test system: rodent lifetime carcinogenesis bioassay, tumor incidence TD50
- ASSAY OVERVIEW: carcinogenic potency in animals, long-term in vivo studies, CPDB compilation (AID 1745844)
- TEST CONDITIONS: rat; strain Fischer 344; males; in feed; site: liver; lesion: hepatocellular adenoma; dosed 52 weeks; study length 52 weeks

SAMPLE SMILES: Cc1cccc(Nc2cc(Cl)nc(SCC(=O)O)n2)c1C
TESTED ON: rodent lifetime carcinogenesis bioassay, tumor incidence TD50
TD50: 2.29 mg/kg/day

SAMPLE SMILES: O=C(O)c1cc(=O)[nH]c(=O)[nH]1
TESTED ON: rodent lifetime carcinogenesis bioassay, tumor incidence TD50
TD50: 925 mg/kg/day

---

- Tested on: rodent lifetime carcinogenesis bioassay, tumor incidence TD50
- ASSAY OVERVIEW: carcinogenic potency in animals, long-term in vivo studies, CPDB compilation (AID 1745844)
- TEST CONDITIONS: rat; strain Fischer 344; females; by gavage; site: liver; lesion: hepatocellular adenoma + hepatoblastoma + hepatocellular carcinoma; dosed 91 weeks; study length 105 weeks
PROPERTY LABEL: TD50 (mg/kg/day)

SAMPLE SMILES: ClCC(Cl)CCl
READING: 81.4

---

- Test system: rodent lifetime carcinogenesis bioassay, tumor incidence TD50
- ASSAY OVERVIEW: carcinogenic potency in animals, long-term in vivo studies, CPDB compilation (AID 1745844)
- TEST CONDITIONS: rat; strain Wistar; males; in feed; site: liver; lesion: hepatoma; dosed 89 weeks; study length 89 weeks

SAMPLE SMILES: Nc1ccc2c(c1)oc1ccccc12
TESTED ON: rodent lifetime carcinogenesis bioassay, tumor incidence TD50
TD50 / mg/kg/day: 9.44

---

- Tested on: rodent lifetime carcinogenesis bioassay, tumor incidence TD50
- ASSAY OVERVIEW: carcinogenic potency in animals, long-term in vivo studies, CPDB compilation (AID 1745844)
- TEST CONDITIONS: rat; strain Fischer 344; males; by gavage; site: kidney; lesion: tubule adenoma; dosed 65 weeks; study length 104 weeks
PROPERTY LABEL: TD50 (mg/kg/day)

SAMPLE SMILES: O=c1ccc2ccccc2o1
PROPERTY LABEL: TD50
MEASUREMENT UNITS: mg/kg/day
READING: 67.6
